Data credit: ChEMBL document CHEMBL5226283

# experimental.details: Oral bioavailability in C57BL/6 mouse
# Type: ADME, organism-based
# test.parameters: in vivo
measured.attribute: bioavailability (%)
Answers are plain numbers, in %.

Supply bioavailability value. Item: CC1(C)OB(c2ccc(COn3c(C(=O)NCc4ccc(-c5ccccc5)cc4)cccc3=O)cc2)OC1(C)C
68.1
